# Tested target: Dual specificity protein kinase CLK4 (Homo sapiens)
# Test protocol: qHTS Assay for Inhibitors of CDC-like Kinase 4 (ADP-Glo Assay) (AID 1771); note: nearly all actives have a fitted effect of over 70% in size
# Experimental conditions: recombinant CLK4, ADP-Glo luminescence; series mostly up to 80 µM
Inconclusive results are not listed. The source made the active and inactive calls. Calls come from the whole dose curve; as a rule, active = well fitted inhibition curve with a large enough effect; inconclusive = small, poorly fitted or top-dose-only effect; inactive = flat fitted curve, though single readings scatter.
Respond with a class label; see active, inactive

# Record smiles, Category
data = [
    ("NC(=O)c1ccccc1-c1nc(-n2ccnc2)c2ccccc2n1", "inactive"),
]

# outcome recorded in this test, key = `COCCNc1ncnc2ccc(-c3ccc(N(C)C)cc3)cc12`
active

// same read-out, input: `CN(C)C(=O)c1ccc(-c2cncnc2NCc2cccnc2)cc1`
inactive

// same read-out, input: `CNc1nc(-c2cccc(C#N)c2)nc2ccccc12`
active

// same read-out, input: `COc1ccccc1CCn1c(=O)c(-c2cn(C)c3ccccc23)nc2cncnc21`
inactive

// same read-out, input: `CCNc1ncc2nc(-c3ccc(Cl)cc3)c(=O)n(-c3ccc(OC)cc3)c2n1`
inactive

// same read-out, input: `COCCn1c(=O)c(CCc2ccccc2)nc2cnc(Oc3ccc(OC)cc3)nc21`
inactive

// same read-out, input: `CN(C)c1ncc2nc(-c3cccs3)c(=O)n(Cc3cccs3)c2n1`
inactive

// same read-out, input: `COc1ccccc1CNc1cc(-c2ccc(C(=O)N(C)C)cc2)ncn1`
active

// same read-out, input: `COc1ccc(CNc2ncncc2-c2cccc(C#N)c2)c(OC)c1`
active

// same read-out, input: `c1cncc(CNc2ncncc2-c2ccoc2)c1`
inactive

// same read-out, input: `COc1ccccc1CNc1nc(-c2ccccc2OC)nc2ccccc12`
inactive

// same read-out, input: `COc1ncc2nc(-c3cccs3)c(=O)n(Cc3ccc(F)cc3)c2n1`
inactive

// same read-out, input: `c1cncc(-c2ccc3ncnc(NC4CCNCC4)c3c2)c1`
active

* * *

# Tested target: Dual specificity protein kinase CLK4 (Homo sapiens)
# Test protocol: qHTS Assay for Inhibitors of CDC-like Kinase 4 (ADP-Glo Assay) (AID 1771); note: nearly all actives have a fitted effect of over 70% in size; note: potency is the fitted concentration of half-maximal effect
# Experimental conditions: recombinant CLK4, ADP-Glo luminescence; series mostly up to 80 µM
Results filed as inconclusive are left out. Activity calls are given as the source filed them. Calls follow the shape of the dose curve; as a rule, active = well fitted inhibition curve with a large enough effect; inconclusive = small, poorly fitted or top-dose-only effect; inactive = flat fitted curve, though single readings scatter.
Measured attribute: Potency

# Record smiles, Tested target, Potency
data = [
    ("Clc1ccccc1-c1nccc(NCc2ccccc2)n1", "Dual specificity protein kinase CLK4 (Homo sapiens)", "inactive"),
    ("c1nc(NC2CC2)c2cc(-c3ccoc3)ccc2n1", "Dual specificity protein kinase CLK4 (Homo sapiens)", "0.708 µM (active)"),
    ("COc1ccccc1-c1ccc2ncnc(N(C)Cc3ccco3)c2c1", "Dual specificity protein kinase CLK4 (Homo sapiens)", "14.1 µM (active)"),
    ("Cc1nc2cncnc2n(Cc2ccccc2Cl)c1=O", "Dual specificity protein kinase CLK4 (Homo sapiens)", "inactive"),
    ("COCCn1c(=O)c(-c2ccccc2)nc2cnc(Nc3cccc(OC)c3)nc21", "Dual specificity protein kinase CLK4 (Homo sapiens)", "inactive"),
]

Need Potency of `COc1ccc(CNc2nc(-c3ccc(N(C)C)cc3)nc3ccccc23)c(OC)c1` , thanks.
inactive

// same read-out, input: `CN(C)Cc1ccccc1-c1cc(NCc2cccs2)ncn1`
inactive

// same read-out, input: `COc1cccc(-c2nc(NCc3ccccc3OC)c3ccccc3n2)c1`
inactive

// same read-out, input: `COCCn1c(=O)c(-c2ccccc2)nc2cnc(N(C)C)nc21`
inactive

// same read-out, input: `Cn1c(=O)c(-c2ccccc2)nc2cnc(OCc3ccccc3)nc21`
inactive

// same read-out, input: `O=c1c(-c2ccc(Cl)cc2)nc2cnc(N3CCOCC3)nc2n1Cc1ccc(F)cc1`
inactive
